assay system: T1, cynomolgus monkey latent myostatin (cynomolgus monkey, UniProt Q95J86 25-266; Q95J86 267-375, limits assumed)
T1 construct: also called cyno latent myostatin
T1 sequence 1: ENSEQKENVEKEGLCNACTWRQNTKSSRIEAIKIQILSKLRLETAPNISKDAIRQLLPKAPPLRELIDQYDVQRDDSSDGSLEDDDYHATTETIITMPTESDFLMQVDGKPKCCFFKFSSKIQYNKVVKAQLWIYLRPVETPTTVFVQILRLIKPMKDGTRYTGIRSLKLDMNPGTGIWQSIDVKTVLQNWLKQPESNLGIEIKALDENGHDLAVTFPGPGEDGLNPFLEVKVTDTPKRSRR
T1 sequence 2: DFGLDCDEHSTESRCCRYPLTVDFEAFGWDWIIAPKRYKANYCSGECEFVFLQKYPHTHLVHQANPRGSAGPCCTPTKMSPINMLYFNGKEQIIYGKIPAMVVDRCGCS
assay info: SPR 37C pH7.4; pH 7.4
Listed below: pKd values for each entry.
# log scale: pKd equals minus log10 of the concentration in mol/L

# example entries with known answers
MS_M103205H795-SG1/M103202L1060-SK1 (antibody, human IgG1, kappa, V domains shown, also called MS1032LO24-SG1) VH: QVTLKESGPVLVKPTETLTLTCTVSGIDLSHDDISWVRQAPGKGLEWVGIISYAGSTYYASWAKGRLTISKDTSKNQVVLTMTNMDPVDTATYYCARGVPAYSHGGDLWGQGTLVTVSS VL: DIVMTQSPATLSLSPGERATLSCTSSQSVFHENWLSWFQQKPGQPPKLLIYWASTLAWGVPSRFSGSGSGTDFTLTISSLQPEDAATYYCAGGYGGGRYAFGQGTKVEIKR = 9.72
MS_M103205H1046-SG1/M103202L889-SK1 (antibody, human IgG1, kappa, V domains shown, also called MS1032LO10-SG1) VH: QVTLKESGPVLVKPTETLTLTCTVSGIDLSHTDISWVRQAPGKGLEWVGIISYAGKTYYASWAKKRLTISKDTSKNQVVLTMTNMDPVDTATYYCARGVPAYSHGGDLWGQGTLVTVSS VL: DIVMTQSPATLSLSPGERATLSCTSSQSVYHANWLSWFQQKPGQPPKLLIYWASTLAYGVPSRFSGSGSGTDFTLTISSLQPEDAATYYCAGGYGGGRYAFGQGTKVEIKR = 9.38

Please turn your attention to the following entry.
Short answer for MS_M103205H1057-SG1/M103202L889-SK1 (antibody, human IgG1, kappa, V domains shown, also called MS1032LO12-SG1) VH: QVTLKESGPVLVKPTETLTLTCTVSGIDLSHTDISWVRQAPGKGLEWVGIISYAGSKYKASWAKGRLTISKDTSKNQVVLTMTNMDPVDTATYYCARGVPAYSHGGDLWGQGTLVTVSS VL: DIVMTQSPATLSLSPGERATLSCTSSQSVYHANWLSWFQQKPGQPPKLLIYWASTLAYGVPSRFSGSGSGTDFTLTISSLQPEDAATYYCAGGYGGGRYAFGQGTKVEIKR : pKd was 9.31
